Each recorded value in this set is attributed to the supplement of paper PMC10307832.

- Test system: NCI-H358
- TEST_PROTOCOL: relative viability (nuclei count vs DMSO), 5 days (fraction); higher = more cells survive
- CONDITION_CONTEXT: first compound 0.04 µM
EXPERIMENTAL_ENDPOINT: relative viability

# COMPOUND, TARGET_ENTITY, OBSERVED_VALUE
data = [
    ("C[C@@H]1CN(CC(=O)Nc2ccc3c(c2)Cc2cccc(-c4cc(=O)cc(N5CCOCC5)o4)c2S3)C[C@H](C)O1 + C[C@@H](Oc1cc(-c2cnn(C3CCNCC3)c2)cnc1N)c1c(Cl)ccc(F)c1Cl [Crizotinib] (partner 1 µM)", "NCI-H358", 0.456),
    ("COc1cc(N2CCC(C(N)=O)CC2)ccc1Nc1nc(N)c(Cl)c(Nc2ccccc2S(=O)(=O)C(C)C)n1 [HG-5-88-01] + O=C(c1cc(Cc2n[nH]c(=O)c3ccccc23)ccc1F)N1CCN(C(=O)C2CC2)CC1 [Olaparib] (partner 8 µM)", "NCI-H358", 0.569),
    ("C[C@@H]1CN(CC(=O)Nc2ccc3c(c2)Cc2cccc(-c4cc(=O)cc(N5CCOCC5)o4)c2S3)C[C@H](C)O1 + NC(=O)Nc1cc(-c2cccc(F)c2)sc1C(=O)N[C@H]1CCCNC1 [AZD7762] (partner 0.2 µM)", "NCI-H358", 0.463),
    ("C[C@@H]1CN(CC(=O)Nc2ccc3c(c2)Cc2cccc(-c4cc(=O)cc(N5CCOCC5)o4)c2S3)C[C@H](C)O1 + CC(=O)Nc1cccc(-n2c(=O)n(C3CC3)c(=O)c3c(Nc4ccc(I)cc4F)n(C)c(=O)c(C)c32)c1 [Trametinib] (partner 0.02 µM)", "NCI-H358", 0.131),
]

###

- System: NCI-H2126
- TEST_PROTOCOL: relative viability (nuclei count vs DMSO), 5 days (fraction); higher = more cells survive
- CONDITION_CONTEXT: first compound 0.8 µM
Each entry below carries its reported relative viability.

# COMPOUND, relative viability
data = [
    ("CCCCCCCCCCCC1=C(O)C(=O)C=C(O)C1=O [Embelin] + CS(=O)(=O)CCNCc1ccc(-c2ccc3ncnc(Nc4ccc(OCc5cccc(F)c5)c(Cl)c4)c3c2)o1 [Lapatinib] (partner 2 µM)", 0.791),
    ("CCCCCCCCCCCC1=C(O)C(=O)C=C(O)C1=O [Embelin] + COc1cc2c(Oc3ccc(NC(=O)C4(C(=O)Nc5ccc(F)cc5)CC4)cc3F)ccnc2cc1OCCCN1CCOCC1 [Foretinib] (partner 0.25 µM)", 1.21),
    ("CCCCCCCCCCCC1=C(O)C(=O)C=C(O)C1=O [Embelin] + Cc1nc(NC(=O)N2CCC[C@H]2C(N)=O)sc1-c1ccnc(C(C)(C)C(F)(F)F)c1 [Alpelisib] (partner 2 µM)", 0.743),
    ("CCCCCCCCCCCC1=C(O)C(=O)C=C(O)C1=O [Embelin] + O=C(CCCCCCC(=O)Nc1ccccc1)NO [Vorinostat] (partner 1 µM)", 0.763),
    ("CCCCCCCCCCCC1=C(O)C(=O)C=C(O)C1=O [Embelin] + C[C@]1(O)C[C@@H](c2nc(-c3ccc4ccc(-c5ccccc5)nc4c3)c3c(N)nccn32)C1 [Linsitinib] (partner 1 µM)", 0.787),
    ("CCCCCCCCCCCC1=C(O)C(=O)C=C(O)C1=O [Embelin] + NC(=O)Nc1cc(-c2cccc(F)c2)sc1C(=O)N[C@H]1CCCNC1 [AZD7762] (partner 0.2 µM)", 1.08),
    ("CCCCCCCCCCCC1=C(O)C(=O)C=C(O)C1=O [Embelin] + Nc1nc2[nH]cc(CCc3ccc(C(=O)N[C@@H](CCC(=O)O)C(=O)O)cc3)c2c(=O)[nH]1 [Pemetrexed] (partner 0.2 µM)", 0.636),
]
